# experimental protocol: Clearance in C57BL/6 mouse at 5 mg/kg, iv
# Type: ADME, organism-based
# stated conditions: in vivo
readout: clearance (mL/min/kg)
// return numeric value only (unit: mL/min/kg, not printed)

Entry `CC[C@@H]1NC(=O)[C@H]([C@@H]2O[C@@H](Sc3cccc(OCc4ccccc4)c3)C[C@H]2C)N(C)C(=O)[C@H](C(C)C)N(C)C(=O)[C@H](CC(C)C)N(C)C(=O)[C@H](CC(C)C)N(C)C(=O)[C@@H](C)NC(=O)[C@H](C)NC(=O)[C@H](CC(C)C)N(C)C(=O)[C@H](C(C)C)NC(=O)[C@H](CC(C)C)N(C)C(=O)CN(C)C1=O` ; clearance = 2.1

###

# experimental protocol: Cmax in C57BL/6 mouse at 10 mg/kg, ip
# Type: ADME, organism-based
# Design: route intraperitoneal, dose 10 mg/kg
# stated conditions: in vivo
readout: Cmax (ng/mL)
Give the number; ng/mL is assumed, so skip it.

Noted for `CC[C@@H]1NC(=O)[C@H]([C@@H]2O[C@@H](Sc3cccc(OCc4ccccc4)c3)C[C@H]2C)N(C)C(=O)[C@H](C(C)C)N(C)C(=O)[C@H](CC(C)C)N(C)C(=O)[C@H](CC(C)C)N(C)C(=O)[C@@H](C)NC(=O)[C@H](C)NC(=O)[C@H](CC(C)C)N(C)C(=O)[C@H](C(C)C)NC(=O)[C@H](CC(C)C)N(C)C(=O)CN(C)C1=O` : its Cmax reads 12400

###

# experimental protocol: Intrinsic clearance in human liver microsomes at 1 uM preincubated for 5 mins followed by NADPH addition and measured upto 60 mins by LC-MS analysis
# Type: ADME, Microsome
# stated conditions: read-out: CLH
Assign labels as follows, please: Satisfied for microsomal CLint at 1 µM below 6 µL/min/mg; Not satisfied for microsomal CLint at 1 µM equal to or exceeding 6 µL/min/mg.

Below, 3 molecules whose answers are already recorded.
# smiles data, cat
rows = [
    ("CC[C@@H]1NC(=O)[C@H]([C@@H]2O[C@@H](Sc3ccc(Cl)c(OC)c3)C[C@H]2C)N(C)C(=O)[C@H](C(C)C)N(C)C(=O)[C@H](CC(C)C)N(C)C(=O)[C@H](CC(C)C)N(C)C(=O)[C@@H](C)NC(=O)[C@H](C)NC(=O)[C@H](CC(C)C)N(C)C(=O)[C@H](C(C)C)NC(=O)[C@H](CC(C)C)N(C)C(=O)CN(C)C1=O", "Not satisfied"),
    ("CC[C@@H]1NC(=O)[C@H]([C@@H]2O[C@@H](Sc3cc(Cl)cc(OC)c3)C[C@H]2C)N(C)C(=O)[C@H](C(C)C)N(C)C(=O)[C@H](CC(C)C)N(C)C(=O)[C@H](CC(C)C)N(C)C(=O)[C@@H](C)NC(=O)[C@H](C)NC(=O)[C@H](CC(C)C)N(C)C(=O)[C@H](C(C)C)NC(=O)[C@H](CC(C)C)N(C)C(=O)CN(C)C1=O", "Satisfied"),
    ("CC[C@@H]1NC(=O)[C@H]([C@@H]2O[C@@H](Sc3cccc(OCc4ccc(F)cc4)c3)C[C@H]2C)N(C)C(=O)[C@H](C(C)C)N(C)C(=O)[C@H](CC(C)C)N(C)C(=O)[C@H](CC(C)C)N(C)C(=O)[C@@H](C)NC(=O)[C@H](C)NC(=O)[C@H](CC(C)C)N(C)C(=O)[C@H](C(C)C)NC(=O)[C@H](CC(C)C)N(C)C(=O)CN(C)C1=O", "Not satisfied"),
]

Attention now shifts to the item below.
[in] is_below(microsomal CLint at 1 µM, 6 µL/min/mg) for `CCOc1cccc(S[C@H]2C[C@@H](C)[C@H]([C@H]3C(=O)N[C@@H](CC)C(=O)N(C)CC(=O)N(C)[C@@H](CC(C)C)C(=O)N[C@@H](C(C)C)C(=O)N(C)[C@@H](CC(C)C)C(=O)N[C@@H](C)C(=O)N[C@H](C)C(=O)N(C)[C@@H](CC(C)C)C(=O)N(C)[C@@H](CC(C)C)C(=O)N(C)[C@@H](C(C)C)C(=O)N3C)O2)c1` ?
[out] Not satisfied

This collection of values is drawn from ChEMBL document CHEMBL4706643.
